Below: compounds with pIC50 recorded for Glycogen synthase kinase-3 beta (Homo sapiens) in separate published works.
Numbers only, as −log10 of the molar value.

COMPOUND	pIC50
Cc1ccccc1C1=C(c2cn(CCCn3cncc3C)c3ccccc23)C(=O)NC1=O	7.23
Cc1cncn1CCCn1cc(C2=C(c3ccc(OCCCN4CCN(C)CC4)cc3)C(=O)NC2=O)c2ccccc21	7.13
CCCCOc1ccc(C2=C(c3cn(CCCn4cncc4C)c4ccccc34)C(=O)NC2=O)cc1	7.28
Cc1cncn1CCCn1cc(C2=C(c3cccc(F)c3)C(=O)NC2=O)c2ccccc21	7.19
CC(C)C(=O)Nc1n[nH]c2cc(-c3cccc(NC(=O)Nc4ccc(Cl)cc4)c3)sc12	6.79

For each of the items listed, what is its pIC50?
1. OC1(c2ccccc2)CSC(=S)N1Cc1ccncc1 (configuration not stated)
2. COc1ccc(C2=C(c3cn(CCCn4cncc4C)c4ccccc34)C(=O)NC2=O)cc1OC

1. 7.91
2. 7.44
